- assay_summary: plasma exposure in Swiss mice
- Assay type: in vivo, Swiss outbred mice
- condition_description: oral 10 mg/kg, PEG400 suspension, comparison in words
value_type: plasma exposure

COc1cc2[nH]c(C)c(-c3ccc(-c4ccc(OC(F)(F)F)cc4)nc3)c(=O)c2cc1Cl = slightly lower exposure
COc1cc2[nH]c(C)c(-c3ccc(-c4ccc(C(F)(F)F)cc4F)nc3)c(=O)c2cc1Cl = slightly lower exposure

----------
- assay_summary: human liver microsomal stability
- Type: in vitro ADME
- condition_description: liver microsomes, intrinsic clearance (CLint)
value_type: microsomal CLint at 1 μM

COc1cc2[nH]c(C)c(-c3ccncc3)c(=O)c2cc1Cl [Compound 21] = < 15 µL/min/mg
COc1cc2[nH]c(C)c(-c3cccnc3)c(=O)c2cc1Cl [Compound 20] = < 15 µL/min/mg

Please examine the following record next.
Name the reported microsomal CLint at 1 μM value associated with the compound COc1cc2[nH]c(C)c(-c3ccc(Oc4ccccc4)cc3)c(=O)c2cc1Cl [Compound 46]
19 µL/min/mg
